System: COS cells
assay-summary: Growth inhibition of control COS cells (nontransfected / vector alone)
Format: cell-based, African monkey
measurement-setup: Primates; nontransfected COS cells; growth inhibition
For each of the compounds below, state its pEC50.
Answers are plain numbers, as −log10 of the molar value.

Worked set:
{"columns": ["compound", "pEC50"],
 "data": [
  ["Cc1ccc(S(=O)(=O)NC(=O)Nc2ccc(Cl)cc2)cc1 [LY181984]", 4.70],
  ["COc1cc(CNC(=O)CCCC/C=C/C(C)C)ccc1O [Capsaicin, 8-methyl-N-vanillyl-6-noneamide]", 4.89],
  ["CN(Cc1cnc2nc(N)nc(N)c2n1)c1ccc(C(=O)N[C@@H](CCC(=O)O)C(=O)O)cc1 [Methotrexate, methotrexate]", 6.00]
]}

Lab note: next compound to report on.
Lab note: COc1cccc2c1C(=O)c1c(O)c3c(c(O)c1C2=O)C[C@@](O)(C(=O)CO)C[C@@H]3O[C@H]1C[C@H](N)[C@H](O)[C@H](C)O1 [Adriamycin, adriamycin] gave pEC50 of 6.52
